Origin of the recorded values: PubChem BioAssay AID2314

- protocol: Cycloheximide Counterscreen for Small Molecule Inhibitors of Shiga Toxin; note: read at 38.3 µM for the half of the compounds with a filed dose; 0% is about no effect
- conditions_used: cell reporter, cycloheximide protein synthesis inhibition counterscreen; stronger effect = higher value
About 37,000 (12%) of roughly 300,000 compounds were called active. The sample holds actives, similar compounds and a random draw of the others, so the mix is not that of the screen.
Measured max response of individual entries

| molecule | unit_descriptor | max response |
| --- | --- | --- |
| COc1cc(/C=C2\C(=N)N3N=C(CC(=O)N4CCOCC4)SC3=NC2=O)cc(OC)c1OC | % | -8.71 |
| Cc1ccc(N(C(=O)c2snc(C(N)=O)c2N)C(C(=O)NCC2CCCO2)c2c[nH]c3ccccc23)cc1 (stereo not drawn) | % | -1.6 |
| COc1ccccc1N1N=C(c2cccs2)CC1c1ccccc1 (stereo not drawn) | % | 6.34 |
| CC1CC(NC(=O)/C(C#N)=C/c2ccc[nH]2)CC(C)(C)C1 (stereo not drawn) | % | 4.89 |
| CN(C)S(=O)(=O)N1CCC(Oc2cccc(C(=O)NCCCC3CCCC3)c2)CC1 | % | 52.4 |
| COc1ccc(C2CC(c3cccs3)=NN2c2ccccc2)cc1 (stereo not drawn) | % | 41 |
| COc1ccc(C2/C=C\CN(Cc3ccco3)C(C)C(=O)N2Cc2ccc(F)cc2)cc1 (stereo not drawn) | % | 10.6 |
| CCN(CC(=O)Nc1ccc(Cl)c(S(=O)(=O)N(C)C)c1)Cc1nc2ccccc2c(=O)[nH]1 | % | -3.17 |
| NS(=O)(=O)c1ccc(CNC(=O)c2cnccn2)cc1 | % | -2.6 |
| OC(c1ccc(Cl)cc1)C(CN1CCOCC1)c1ccccc1 (stereo not drawn) | % | -2.76 |
| Cc1cccc(-n2c(O)c(C=Nc3ccccc3N)c(=O)[nH]c2=O)c1 | % | 39.4 |
| Cc1ccc(-c2ccc(=O)n(Cc3ccc(F)cc3Cl)n2)cc1 | % | 7.94 |
| CC(=O)c1c(C)[nH]c(C(=O)Nc2cc(S(=O)(=O)N(C)C)ccc2C)c1C | % | 6.78 |
| O=C(NCc1cccnc1)C12CC3CC(CC(C3)C1)C2 | % | -4.42 |
| Cc1nn(-c2ncc(C(F)(F)F)cc2Cl)c(=O)n1-c1ccccc1 | % | 0.461 |
| COc1cc(CN2CCCC(C(=O)c3ccc(SC)cc3)C2)cc(Cl)c1O (stereo not drawn) | % | 4.43 |
| CCCN(CCC)c1ccc(C(O)c2nnc(-c3ccccc3)o2)cc1 (stereo not drawn) | % | 26.9 |
| COC(=O)c1c(C)oc2ccc(N(C(=O)Oc3ccccc3)S(=O)(=O)c3ccccc3)cc12 | % | -13.2 |
| COc1ccc(C2=NN(c3ccccc3)C(c3cccs3)C2)cc1 (stereo not drawn) | % | 0.803 |
| Cn1c(C(=O)N2CCCC(C(=O)NCc3ccccc3)C2)cc2sccc21 (stereo not drawn) | % | 3.91 |
| COCC1CCCN(Cc2nc(-c3ccc4c(c3)OCO4)no2)C1 (stereo not drawn) | % | 42.1 |
| COc1cccc(/C=C2\Sc3ccc(C(=O)NCC4CCCO4)cc3N(C)C2=O)c1 (stereo not drawn) | % | 6.25 |
| Cc1ccccc1NC(=O)Cn1cc(C(=O)C2CC2)c2ccccc21 | % | -4.37 |
| CCC(C)(C)n1nnnc1C(c1ccc(OC)c(OC)c1)N1CCN(C(=O)c2ccco2)CC1 (stereo not drawn) | % | -2.11 |
| O=C(NCCN1CCOC1=O)C1CCC(=O)N(CCc2ccc(Cl)cc2)C1 (stereo not drawn) | % | -3.62 |
| Oc1ccc(Cl)cc1/C=N/c1nc2ccccc2[nH]1 | % | 23.3 |
| CCOc1cc(/C=C/c2nc3ccccc3c(=O)[nH]2)cc(Br)c1OC | % | 2.32 |
| OC(c1nnc(-c2ccccc2)o1)c1cccs1 (stereo not drawn) | % | 76.9 |
| Cc1cc(C)nc(N/N=C/c2c(CO)cnc(C)c2O)n1 | % | -2.74 |
| CC1CCCN(CC(O)COc2ccc3c(c2)OCO3)C1 (stereo not drawn) | % | 4.28 |
| O=C(/C(=C/c1cccc(Cl)c1)c1nc2ccccc2[nH]1)c1ccccc1 | % | 46.6 |
| Cc1cccc(-n2c(O)c(/C=N/N3CCOCC3)c(=O)[nH]c2=S)c1 | % | -8.26 |
| C/C(=N\N)c1c(-c2ccccc2)c2cc(Br)ccc2[nH]c1=O | % | 1 |
| Cc1ccc(C)c(NC(=O)C2Cc3ccccc3CN2C(=O)OCc2ccccc2)c1 (stereo not drawn) | % | -3.28 |
| O=C(c1ccccc1)N1N=C(c2ccccc2O)CC1c1ccc(Br)cc1 (stereo not drawn) | % | 3.47 |
| CCN(CC)c1ccc(/C=N/NC(=O)c2cnccn2)c(O)c1 | % | 28.1 |
| Cc1cccc(-n2c(O)c(C=NC34CN5CN(CN(C5)C3)C4)c(=O)[nH]c2=O)c1 | % | 8.1 |
| Oc1ccccc1C1=NN(c2ccccc2)C(c2ccccc2)C1 (stereo not drawn) | % | 49.1 |
| CN(C(=O)c1cccc(OC2CCN(S(=O)(=O)N(C)C)CC2)c1)C1CCOC1 (stereo not drawn) | % | 16.6 |
| COc1ccc(CN2C3CCCC2CC(NC(=O)c2cccc(F)c2)C3)cc1 (stereo not drawn) | % | -1.01 |
| COc1ccc(C(=O)Nc2c(N)nc(SCC(=O)Nc3ccc(C(C)=O)cc3)[nH]c2=O)cc1 | % | 0.562 |
| O=C(N/N=C/c1ccccn1)c1cccnc1 | % | 17.5 |
| O=C(Cc1ccccc1)N1CCN(S(=O)(=O)c2ccc([N+](=O)[O-])cc2)CC1 | % | -3.27 |
